- System: Dd2 PfATP4^P412L mutant clones
- Experimental details: 72 h SYBR Green growth inhibition, 2-selected Dd2 clones with PfATP4 P412L (Phillips Lab)
- Type: cell-based, Plasmodium falciparum
- Test settings: Plasmodium falciparum, DD2, read-out: EC50, 2-resistant Flask 2 Clone F9
Measurement kind: pEC50
Conceptually, pEC50 converts a concentration in mol/L into minus its log10.

COc1ccc(Cl)cc1NC(=O)Cn1cccc1-c1nnc(C2CC2)o1 | 5.12

Could you now look at the following compound, please?
Short answer for C[C@H]1Cc2c([nH]c3cc(Cl)c(F)cc23)[C@@]2(N1)C(=O)Nc1ccc(Cl)cc12 [KAE609, cipargamin, reference compound] : pEC50 was 7.85

----------
- System: P. falciparum Dd2 (PfDd2) parasites
- Experimental details: 72 h SYBR Green growth inhibition, ABS P. falciparum Dd2 (Phillips Lab)
- Type: cell-based, Plasmodium falciparum
- Test settings: Plasmodium falciparum, DD2, read-out: EC50, Dd2 Parent (clone G9)
Measurement kind: pEC50
In simple prose, pEC50 is minus the logarithm base ten of a concentration in moles per litre.

Entry "Cc1nn(CCNC(=O)Cn2c(C)c(C#N)c3ccccc32)c(C)c1Cl" , pEC50 reported as 6.00

----------
- Test system: P. falciparum Dd2 (PfDd2) parasites
- Experimental details: 72 h SYBR Green growth inhibition, ABS P. falciparum Dd2 (Phillips Lab)
- Format: cell-based, Plasmodium falciparum
- Test settings: Plasmodium falciparum, DD2, read-out: EC50, Dd2 Parent (clone B8)
Measurement kind: pEC50
Scale for pEC50: -log10 of concentration given in mol/L; no unit attached.

Entry Cc1ccnc(NC(=O)Cn2cccc2-c2nc(-c3ccccc3)cs2)c1 [compound 2] ; pEC50 = 6.11

----------
- System: P. falciparum 3D7 parasites (Pf3D7)
- Experimental details: 72 h SYBR Green growth inhibition, ABS P. falciparum 3D7 (Phillips Lab)
- Assay type: cell-based, Plasmodium falciparum
- Test settings: 72 h SYBR Green assay; mean ± SEM (n)
Measurement kind: pEC50
API: returns pEC50 as number; meaning -log10 of concentration in mol/L.

These recorded examples may help you get a feel for the data.
Cc1ccc(NC(=O)Cn2cccc2-c2nc(-c3ccccc3)cs2)nc1 [compound 5] | 5.00
Cc1cccc(NC(=O)Cn2cccc2-c2nc(-c3ccccc3)cs2)n1 [compound 6] | 4.82
O=C(Cn1cccc1-c1nc(-c2ccccc2)cs1)Nc1cccc(Cl)c1 [compound 10] | 5.80

Attention now shifts to the item below.
// compound Cc1ccnc(NC(=O)Cn2cccc2-c2nc(-c3ccc(Cl)cc3)cs2)c1 [compound 7] , assay P. falciparum 3D7 parasites (Pf3D7), pEC50 value: 4.82

----------
- Tested on: Dd2^L350H (PfATP4^L350H)
- Experimental details: Drug susceptibility assay for cross-resistance profiling (Fidock Lab), L350H
- Assay type: cell-based, Plasmodium falciparum
- Test settings: Plasmodium falciparum, DD2; 15-selected line, Table 3 data set
Listed compounds paired with reported EC50
Report as a plain number; the unit nM is understood.

Some compounds with recorded EC50:
C[C@H]1[C@@H](O)O[C@@H]2O[C@@]3(C)CC[C@H]4[C@H](C)CC[C@@H]1[C@@]24OO3 [DHA, dihydroartemisinin, reference compound] | 2.4
Cc1nn(CCNC(=O)Cn2c(C)c(C#N)c3ccccc32)c(C)c1Cl | 3400
Cc1ccnc(NC(=O)Cn2cccc2-c2nc(-c3ccccc3)cs2)c1 | 1600

Read the next record carefully.
Value of measured EC50 for the entry C[C@H]1Cc2c([nH]c3cc(Cl)c(F)cc23)[C@@]2(N1)C(=O)Nc1ccc(Cl)cc12 [KAE609, cipargamin, reference compound] : 4.8
